Target: PE-labeled human PD-L1-Ig binding to Jurkat cell line over-expressing human PD-1 (Jurkat-PD-1) (Homo sapiens)
Construct: expressed in transfected cells; host or cells: Jurkat
Sequence (Q15116 25-288): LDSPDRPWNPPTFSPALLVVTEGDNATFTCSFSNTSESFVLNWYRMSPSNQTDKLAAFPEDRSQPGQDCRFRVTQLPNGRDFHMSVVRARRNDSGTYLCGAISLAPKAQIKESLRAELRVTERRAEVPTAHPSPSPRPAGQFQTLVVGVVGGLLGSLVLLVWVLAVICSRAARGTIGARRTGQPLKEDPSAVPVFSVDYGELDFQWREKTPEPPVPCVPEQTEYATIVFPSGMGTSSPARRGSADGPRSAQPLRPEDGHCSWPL
Experiment: Jurkat-PD-1 Cell Binding High-Content Screening Assay (CBA): Method 1
Details: Jurkat-hPD-1 cells, PE-labeled PD-L1-Ig 20 nM final; read-out: Jurkat HPDL1 PD1 IC50 (uM) (Method 1)
Bridge positions count the residues as written; N and C are the ends. Square brackets hold non-standard residues; d marks the D form. Peptide text beside a SMILES is read from it. Trp(7-Me) = Cc1cccc2c(C[C@H](N)C(=O)O)c[nH]c12; Bip = N[C@@H](Cc1ccc(-c2ccccc2)cc1)C(=O)O; NMeA = CN[C@@H](C)C(=O)O; Orn = NCCC[C@H](N)C(=O)O; Dab = NCC[C@H](N)C(=O)O
Parameter IC50: see the listing below.
Output spec: scalar in µM, unitless text.

compound	measure-name	readout-number
CC(C)C[C@@H]1NC(=O)[C@H](Cc2c[nH]c3ccccc23)NC(=O)[C@H](CC(=O)O)NC(=O)[C@H](Cc2ccc(O)cc2)NC(=O)[C@H](Cc2ccccc2)NC(=O)CSC[C@@H](C(=O)NCC(N)=O)NC(=O)[C@H](CO)NC(=O)[C@H](C(C)C)NC(=O)[C@H](CC(C)C)NC(=O)[C@H](CC(N)=O)NC(=O)[C@@H](C)NC(=O)[C@H](C)N(C)C(=O)[C@H](C(C)C)NC(=O)[C@H](Cc2ccc(-c3ccccc3)cc2)NC1=O [Compound 1729] ({CH2CO}-FYDWL[Bip]V[NMeA][dA]NLVSCG-NH2; thioether N-14)	IC50	0.01
CC(C)C[C@@H]1NC(=O)[C@H](CCN)NC(=O)[C@@H](CC(C)C)NC(=O)[C@H](C)N(C)C(=O)[C@H](CCCNC(=N)N)NC(=O)[C@H](Cc2ccc(-c3ccccc3)cc2)NC(=O)[C@H](C(C)C)NC(=O)[C@H](Cc2c[nH]c3ccccc23)NC(=O)[C@H](CC(=O)O)NC(=O)[C@H](Cc2ccc(O)cc2)NC(=O)[C@H](CCCN)NC(=O)CSC[C@@H](C(=O)N[C@@H](C)C(N)=O)NC(=O)[C@H]([C@@H](C)O)NC(=O)[C@H](C(C)C)NC1=O [Compound 1341] ({CH2CO}-[Orn]YDWV[Bip]R[NMeA][dL][Dab]LVTCA-NH2; thioether N-14)	IC50	0.05
CC(C)C[C@@H]1NC(=O)[C@H](Cc2c[nH]c3ccccc23)NC(=O)[C@H](CC(=O)O)NC(=O)[C@H](Cc2ccc(O)cc2)NC(=O)[C@H](Cc2ccccc2)NC(=O)CSC[C@@H](C(=O)NCC(N)=O)NC(=O)[C@H](CO)NC(=O)[C@H](C(C)C)NC(=O)[C@H](CC(C)C)NC(=O)[C@H](CC(=O)O)NC(=O)[C@H](CC(C)C)NC(=O)[C@H](C)N(C)C(=O)[C@H](C(C)C)NC(=O)[C@H](Cc2ccc(-c3ccccc3)cc2)NC1=O [Compound 1824] ({CH2CO}-FYDWL[Bip]V[NMeA]LDLVSCG-NH2; thioether N-14)	IC50	0.63

# evaluate next
Consider Cc1cccc2c(C[C@@H]3NC(=O)[C@H](CC(=O)O)NC(=O)[C@H](Cc4ccc(O)cc4)NC(=O)[C@H](Cc4ccccc4)NC(=O)CSC[C@@H](C(=O)N[C@@H](C)C(N)=O)NC(=O)[C@H](CO)NC(=O)[C@H](C(C)C)NC(=O)[C@H](CC(C)C)NC(=O)[C@H](CC(N)=O)NC(=O)[C@@H](C)NC(=O)[C@H](C)N(C)C(=O)[C@H](C(C)C)NC(=O)[C@H](Cc4ccc(-c5ccccc5)cc4)NC(=O)[C@H](CC(C)C)NC3=O)c[nH]c12 [Compound 1796] ({CH2CO}-FYD[Trp(7-Me)]L[Bip]V[NMeA][dA]NLVSCA-NH2; thioether N-14) . Its measured IC50 is 0.16
